Biological target: IRAK4 enzyme (Homo sapiens (Human))
Experiment: biochemical
Assay type: biochemical
Conditions: IRAK4 enzyme, TR-FRET (HTRF), 500 μM ATP
endpoint-name: pIC50
Answers are plain numbers, as −log10 of the molar value.

Example entries begin here.
> print(dat)
                            chemical.string  endpoint.name  reading
1  CC(C)(O)[C@H](F)CNC(=O)c1cnc(-c2ccc3cc(C#N)cnn23)cc1NCCc1ccc(F)cc1          pIC50     9.00
2  COCc1ccc(Nc2cc(-c3ccc4cc(C#N)cnn34)ncc2C(=O)NC[C@@H](F)C(C)(C)O)cc1          pIC50     9.00
3  COC(=O)N(C)C[C@H]1C[C@H](Nc2cc(-c3ccc4cc(C#N)cnn34)ncc2C(=O)NC[C@@H](F)C(C)(C)O)C1          pIC50     9.00
4  CC(=O)N[C@H]1C[C@H](Nc2cc(-c3ccc4cc(C#N)cnn34)ncc2C(=O)NC[C@@H](F)C(C)(C)O)C1          pIC50     9.00

I would be grateful if you could provide pIC50 for each of the following entries.
1. CC(C)(F)CNC(=O)c1cnc(-c2ccc3cc(C#N)cnn23)cc1NC12CCC(O)(CC1)CC2
2. CC(C)(O)[C@H](F)CNC(=O)c1cnc(-c2ccc3cc(C#N)cnn23)cc1Nc1ccncc1
3. CC(=O)N[C@@H]1CCC[C@H](Nc2cc(-c3ccc4cc(C#N)cnn34)ncc2C(=O)NC[C@@H](F)C(C)(C)O)C1

8.40
8.70
9.00

* * *

System: TNFα
Test: cells
Format: cell-based, human
Details: Homo sapiens, Monocyte, LPS-stimulated human monocytes, TNFα content; read-out: EC50 TNF
endpoint-name: pEC50
Answers are plain numbers, as −log10 of the molar value.

> print(dat)
                                   molecule  endpoint.name  reading
1  COC(=O)[C@H](C)NC(=O)c1cnc(-c2ccc3cc(C#N)cnn23)cc1NC12CCC(O)(CC1)CC2 [Example 339]          pEC50     6.58

I would be grateful if you could provide pEC50 for each of the following entries.
1. CC(C)(O)[C@H](F)CNC(=O)c1cnc(-c2ccc3cc(C#N)cnn23)cc1N[C@H]1C[C@](C)(O)C1 [Example 446]
2. CN(C)c1ccc(Nc2cc(-c3ccc4cc(C#N)cnn34)ncc2C(=O)NC[C@@H](F)C(C)(C)O)cn1 [Example 679]
3. N#Cc1cnn2c(-c3cc(N[C@H]4CCC[C@@H](O)C4)c(C(=O)NC4C[C@H]4F)cn3)ccc2c1 (some centres unmarked) [Example 426]
4. COC(=O)NC12CCC(Nc3cc(-c4ccc5cc(C#N)cnn45)ncc3C(=O)NC[C@@H](F)C(C)(C)O)(CC1)C2 [Example 500]
5. CNC(=O)c1ccc(Nc2cc(-c3ccc4cc(C#N)cnn34)ncc2C(=O)NCC#N)cc1 [Example 451]

1: 7.20; 2: 7.77; 3: 6.23; 4: 7.89; 5: 7.52

I would be grateful if you could provide pEC50 for each of the following entries.
1. N#Cc1cnn2c(-c3cc(N[C@H]4CCC[C@@H](O)C4)c(C(=O)NC4CC5(C4)CC(F)(F)C5)cn3)ccc2c1 [Example 427]
2. CC(C)(O)[C@H](F)CNC(=O)c1cnc(-c2ccc3cc(C#N)cnn23)cc1N[C@H]1CC[C@H](NS(C)(=O)=O)CC1 [Example 315]
3. CC1(C(=O)N2CCC(Nc3cc(-c4ccc5cc(C#N)cnn45)ncc3C(=O)NC[C@@H](F)C(C)(C)O)CC2)COC1 [Example 325]
4. CC(C)(O)[C@H](F)CNC(=O)c1cnc(-c2ccc3cc(C#N)cnn23)cc1NC1CCCC(F)C1 (some centres unmarked) [Example 509]
5. Cc1nnc(N[C@H]2CC[C@H](Nc3cc(-c4ccc5cc(C#N)cnn45)ncc3C(=O)NC[C@@H](F)C(C)(C)O)CC2)o1 [Example 269]
6. CC(C)Nc1cc(-c2ccc3cc(C#N)cnn23)ncc1C(=O)NC[C@@H](F)C1(O)CC1 [Example 643]
7. CC(C)(O)[C@H](F)CNC(=O)c1cnc(-c2ccc3cc(C#N)cnn23)cc1Nc1cnn([C@H]2CCNC2)c1 [Example 223]

[6.56, 7.23, 6.64, 7.18, 7.23, 8.10, 7.89]

If you can, please state the reported pEC50 value of CC(=O)N[C@H]1CC[C@@H](Nc2cc(-c3ccc4cc(C#N)cnn34)ncc2C(=O)NC[C@@H](F)C(C)(C)O)C1 [Example 307] .
6.49

* * *

Tested on: TNFα
Assay: cells
Type: cell-based, human
Conditions: Homo sapiens, Monocyte, LPS-stimulated human monocytes, TNFα content; read-out: EC50 TNF
pEC50: −log10 of the molar value.
We use 7 as the dividing line for pEC50: on or above the line is label 1, below is label 0.

> print(dat)
                            chemical.string  label.class
1  CCc1ncc(Nc2cc(-c3ccc4cc(C#N)cnn34)ncc2C(=O)NC[C@@H](F)C(C)(C)O)cn1      label 1
2  CC(C)Nc1cc(-c2ccc3cc(C#N)cnn23)ncc1C(=O)NC1CS(=O)(=O)C1      label 0
3  CC(C)(C)OC(=O)NCC12CC(Nc3cc(-c4ccc5cc(C#N)cnn45)ncc3C(=O)NC[C@@H](F)C(C)(C)O)(C1)C2      label 0
4  CC(C)(O)[C@H](F)CNC(=O)c1cnc(-c2ccc3cc(C#N)cnn23)cc1Nc1ccccc1C(N)=O      label 0
5  CC(C)(O)[C@H](F)CNC(=O)c1cnc(-c2ccc3cc(C#N)cnn23)cc1N[C@H]1CC[C@H](n2cncn2)CC1      label 1

Does the reported pEC50 for CC(C)(O)[C@H](F)CNC(=O)c1cnc(-c2ccc3cc(C#N)cnn23)cc1N[C@H]1CCC[C@@H]1O fall at or above the 7 mark?
label 1

* * *

Please provide measured pIC50 for the entries that follow.
Target: IRAK4 enzyme (Homo sapiens (Human), UniProt Q9NWZ3)
Sequence (Q9NWZ3 whole entry): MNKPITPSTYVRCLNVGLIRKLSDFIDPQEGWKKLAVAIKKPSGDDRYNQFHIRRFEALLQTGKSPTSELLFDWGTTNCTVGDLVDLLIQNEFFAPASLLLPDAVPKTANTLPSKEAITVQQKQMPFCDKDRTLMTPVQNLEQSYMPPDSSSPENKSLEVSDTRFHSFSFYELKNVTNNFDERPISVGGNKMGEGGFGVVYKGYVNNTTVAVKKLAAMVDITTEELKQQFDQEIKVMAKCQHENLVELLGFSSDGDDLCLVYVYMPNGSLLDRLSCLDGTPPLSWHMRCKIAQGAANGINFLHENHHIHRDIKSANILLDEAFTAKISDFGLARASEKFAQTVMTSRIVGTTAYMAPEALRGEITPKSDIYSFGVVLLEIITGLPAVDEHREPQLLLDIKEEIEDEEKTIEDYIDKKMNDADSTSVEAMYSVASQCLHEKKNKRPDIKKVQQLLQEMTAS
Test: biochemical
Format: biochemical
Details: IRAK4 enzyme, TR-FRET, 500 μM ATP
pIC50: −log10 of the molar value.

> print(dat)
                                   compound  reading
1  CC(C)(O)[C@H](F)CNC(=O)c1cnc(-c2ccc3cc(C#N)cnn23)cc1NC12CC(C(N)=O)(C1)C2   > 9.00
2  CCOc1cncc(Nc2cc(-c3ccc4cc(C#N)cnn34)ncc2C(=O)NC[C@@H](F)C(C)(C)O)c1   > 9.00
3  CC(C)(O)[C@H](F)CNC(=O)c1cnc(-c2ccc3cc(C#N)cnn23)cc1N[C@H]1C[C@H](CNC(=O)C2CC(F)(F)C2)C1   > 9.00
4  CC(=O)NCc1ccc(Nc2cc(-c3ccc4cc(C#N)cnn34)ncc2C(=O)NC[C@@H](F)C(C)(C)O)cc1   > 9.00

I would be grateful if you could provide pIC50 for each of the following entries.
1. CC(C)(O)[C@H](F)CNC(=O)c1cnc(-c2ccc3cc(C#N)cnn23)cc1N[C@@H]1CC2CN(C(N)=O)C[C@H]2C1 (some centres unmarked)
2. CCOc1cncc(Nc2cc(-c3ccc4cc(C#N)cnn34)ncc2C(=O)NC[C@@H](F)C(C)(C)O)n1
3. CC(C)(O)[C@H](F)CNC(=O)c1cnc(-c2ccc3cc(C#N)cnn23)cc1N[C@H]1CCC[C@H](O)C1
4. CC(C)(O)[C@H](F)CNC(=O)c1cnc(-c2ccc3cc(C#N)cnn23)cc1Nc1cnsc1
5. CC(C)(O)[C@H](F)CNC(=O)c1cnc(-c2ccc3cc(C#N)cnn23)cc1Nc1cccc(-c2ncc[nH]2)c1
6. CN(C)C(=O)CCNC(=O)c1cnc(-c2ccc3cc(C#N)cnn23)cc1NC12CCC(O)(CC1)CC2

["> 9.00", "> 9.00", "> 9.00", "> 9.00", "> 9.00", "> 9.00"]

I would be grateful if you could provide pIC50 for each of the following entries.
1. COC(=O)NC1(c2ccc(Nc3cc(-c4ccc5cc(C#N)cnn45)ncc3C(=O)NC[C@@H](F)C(C)(C)O)cc2)CC1
2. CCOC(=O)N[C@H]1CC[C@H](Nc2cc(-c3ccc4cc(C#N)cnn34)ncc2C(=O)NC[C@@H](F)C(C)(C)O)CC1

["> 9.00", 9.00]

I would be grateful if you could provide pIC50 for each of the following entries.
1. CC(C)Nc1cc(-c2ccc3cc(C#N)cnn23)ncc1C(=O)NCC(=O)N1CC(F)(F)C1
2. CC(C)Nc1cc(-c2ccc3cc(C#N)cnn23)ncc1C(=O)NCC(O)C(C)(C)O (centres unmarked)

1. 8.70
2. 8.22

* * *

System: TNFα
Assay: cells
Type: cell-based, human
Settings: Homo sapiens, Monocyte, LPS-stimulated human monocytes, TNFα content; read-out: EC50 TNF
Please provide measured pEC50 for the entries that follow.
Answers are plain numbers, as −log10 of the molar value.

> print(dat)
                            chemical.string  endpoint.name  reading
1  CC(C)(O)[C@H](F)CNC(=O)c1cnc(-c2ccc3cc(C#N)cnn23)cc1N[C@H]1C[C@H](CNC(=O)CC(F)F)C1          pEC50     7.40
2  CC(C)(O)[C@H](F)CNC(=O)c1cnc(-c2ccc3cc(C#N)cnn23)cc1NC12CCC(C(=O)N3CCC3)(CC1)CC2          pEC50     7.51
3  COC(=O)N[C@H]1CC[C@H](Nc2cc(-c3ccc4cc(C#N)cnn34)ncc2C(=O)NC[C@@H](F)C(C)(C)OC(C)=O)CC1          pEC50     7.31

I would be grateful if you could provide pEC50 for each of the following entries.
1. COc1cc(Nc2cc(-c3ccc4cc(C#N)cnn34)ncc2C(=O)NC[C@@H](F)C(C)(C)O)ccc1N1CCOCC1
2. CC(C)(O)[C@H](F)CNC(=O)c1cnc(-c2ccc3cc(C#N)cnn23)cc1Nc1ccc(-n2cncn2)cc1

1: 6.40; 2: 8.15

Attribution: patent US10336762B2
